Origin of measurements: ChEMBL document CHEMBL4765234

target: Free fatty acid receptor 1 (Mus musculus); test: Agonist activity at Prolink-tagged mouse GPR40 fused with EA-tagged beta-arrestin expressed in human U2OS cells assessed as induction of beta-arrestin recruitment measured after 90 mins by beta-galactosidase based PathHunter assay; format: cell-based
Sequence (Q76JU9 whole entry, the tested form may be a part): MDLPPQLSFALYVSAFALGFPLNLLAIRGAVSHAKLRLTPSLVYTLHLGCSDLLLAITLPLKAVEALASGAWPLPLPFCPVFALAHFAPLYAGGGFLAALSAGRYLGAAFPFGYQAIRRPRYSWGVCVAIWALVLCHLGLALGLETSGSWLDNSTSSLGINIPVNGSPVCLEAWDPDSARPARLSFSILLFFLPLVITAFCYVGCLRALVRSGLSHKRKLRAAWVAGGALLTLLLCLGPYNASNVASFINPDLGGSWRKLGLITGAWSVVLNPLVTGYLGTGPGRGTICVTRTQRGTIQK
Decide using EC50 alone. Strictly below 0.8 nM: y. Equal to or above 0.8 nM: n.

Data request: Bench note: check whether "CC#C[C@@H](CC(=O)O)c1ccc(OCc2nc(C)c(CN3CCC4(C=Cc5ccccc54)CC3)s2)cc1" shows EC50 below 0.8 nM
Data returned: n

Data request: Now consider "O=C(O)CCc1ccc(OCc2ccc(CN3CCC4(C=Cc5ccccc54)CC3)cc2)cc1Cl" .
Data returned: n

Data request: Now consider "CC#C[C@@H](CC(=O)O)c1ccc(OCc2ccc(CN3CCC4(CC3)CN(c3ccccc3)c3ccccc34)cc2)cc1" .
Data returned: y

Data request: Now consider "CC#C[C@@H](CC(=O)O)c1ccc(OCc2ccc(CN3CCC4(C=Cc5ccccc54)CC3)c(Cl)c2)cc1" .
Data returned: n

Data request: Now consider "CC#C[C@@H](CC(=O)O)c1ccc(OCc2ccc(CN3CCC4(CC3)CN(C(C)C)c3ccccc34)cc2)cc1" .
Data returned: n

Data request: Now consider "CC#C[C@@H](CC(=O)O)c1ccc(OCc2ccc(CN3CCC4(C=Cc5ccccc54)CC3)c(OC)c2)cc1" .
Data returned: n

Data request: Now consider "CC#C[C@@H](CC(=O)O)c1ccc(OCc2ccc(CN3CCC4(CC3)CN(C)c3c(Cl)cccc34)cc2)cc1" .
Data returned: y

Data request: Now consider "CC#C[C@@H](CC(=O)O)c1ccc(OCc2cc(C)c(CN3CCC4(C=Cc5ccccc54)CC3)s2)cc1" .
Data returned: y
